Target: UniProt:P49841
Sequence (P49841 whole entry, looked up): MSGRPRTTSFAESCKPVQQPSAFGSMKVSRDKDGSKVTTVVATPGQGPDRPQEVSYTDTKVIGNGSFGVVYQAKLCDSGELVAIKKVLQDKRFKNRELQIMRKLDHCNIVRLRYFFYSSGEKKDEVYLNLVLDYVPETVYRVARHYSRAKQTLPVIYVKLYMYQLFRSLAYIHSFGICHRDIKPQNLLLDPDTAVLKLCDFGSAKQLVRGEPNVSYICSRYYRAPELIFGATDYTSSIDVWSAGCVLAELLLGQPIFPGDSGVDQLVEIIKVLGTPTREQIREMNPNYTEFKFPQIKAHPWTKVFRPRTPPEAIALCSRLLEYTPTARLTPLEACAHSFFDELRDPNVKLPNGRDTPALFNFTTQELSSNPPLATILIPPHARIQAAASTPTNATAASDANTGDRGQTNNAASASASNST
Assay: Inhibition against GSK3-beta at 10 uM by HTRF method
Design: scale not given: the % may be the effect or the level left
Measurement label: Activity

Guide cases for Activity, answers given:
| Structure notation | Tested on | Result |
| --- | --- | --- |
| Cn1cnc(NCc2cccc3ncccc23)c1-c1nnc(Nc2ccc(Cl)cc2)o1 | UniProt:P49841 | < 30% |
| Cn1cnc(NCc2ccc3[nH]ncc3c2)c1-c1nnc(Nc2ccc(Cl)cc2)o1 | UniProt:P49841 | < 30% |
| Cn1cnc(NCc2ccncc2)c1-c1nnc(Nc2ccc(OC(F)(F)Cl)cc2)o1 | UniProt:P49841 | < 30% |
| Cn1cnc(NCc2ccncc2)c1-c1nnc(Nc2ccc(Cc3ccccc3)cc2)o1 | UniProt:P49841 | < 30% |

Then this compound:
// Activity (UniProt:P49841) for Cn1cnc(NCc2ccc(F)c(F)c2)c1-c1nnc(Nc2ccc(Cl)cc2)o1 = < 30%

====

Molecular target: Vascular endothelial growth factor receptor 2 (Homo sapiens, UniProt P35968)
Sequence (P35968 whole entry): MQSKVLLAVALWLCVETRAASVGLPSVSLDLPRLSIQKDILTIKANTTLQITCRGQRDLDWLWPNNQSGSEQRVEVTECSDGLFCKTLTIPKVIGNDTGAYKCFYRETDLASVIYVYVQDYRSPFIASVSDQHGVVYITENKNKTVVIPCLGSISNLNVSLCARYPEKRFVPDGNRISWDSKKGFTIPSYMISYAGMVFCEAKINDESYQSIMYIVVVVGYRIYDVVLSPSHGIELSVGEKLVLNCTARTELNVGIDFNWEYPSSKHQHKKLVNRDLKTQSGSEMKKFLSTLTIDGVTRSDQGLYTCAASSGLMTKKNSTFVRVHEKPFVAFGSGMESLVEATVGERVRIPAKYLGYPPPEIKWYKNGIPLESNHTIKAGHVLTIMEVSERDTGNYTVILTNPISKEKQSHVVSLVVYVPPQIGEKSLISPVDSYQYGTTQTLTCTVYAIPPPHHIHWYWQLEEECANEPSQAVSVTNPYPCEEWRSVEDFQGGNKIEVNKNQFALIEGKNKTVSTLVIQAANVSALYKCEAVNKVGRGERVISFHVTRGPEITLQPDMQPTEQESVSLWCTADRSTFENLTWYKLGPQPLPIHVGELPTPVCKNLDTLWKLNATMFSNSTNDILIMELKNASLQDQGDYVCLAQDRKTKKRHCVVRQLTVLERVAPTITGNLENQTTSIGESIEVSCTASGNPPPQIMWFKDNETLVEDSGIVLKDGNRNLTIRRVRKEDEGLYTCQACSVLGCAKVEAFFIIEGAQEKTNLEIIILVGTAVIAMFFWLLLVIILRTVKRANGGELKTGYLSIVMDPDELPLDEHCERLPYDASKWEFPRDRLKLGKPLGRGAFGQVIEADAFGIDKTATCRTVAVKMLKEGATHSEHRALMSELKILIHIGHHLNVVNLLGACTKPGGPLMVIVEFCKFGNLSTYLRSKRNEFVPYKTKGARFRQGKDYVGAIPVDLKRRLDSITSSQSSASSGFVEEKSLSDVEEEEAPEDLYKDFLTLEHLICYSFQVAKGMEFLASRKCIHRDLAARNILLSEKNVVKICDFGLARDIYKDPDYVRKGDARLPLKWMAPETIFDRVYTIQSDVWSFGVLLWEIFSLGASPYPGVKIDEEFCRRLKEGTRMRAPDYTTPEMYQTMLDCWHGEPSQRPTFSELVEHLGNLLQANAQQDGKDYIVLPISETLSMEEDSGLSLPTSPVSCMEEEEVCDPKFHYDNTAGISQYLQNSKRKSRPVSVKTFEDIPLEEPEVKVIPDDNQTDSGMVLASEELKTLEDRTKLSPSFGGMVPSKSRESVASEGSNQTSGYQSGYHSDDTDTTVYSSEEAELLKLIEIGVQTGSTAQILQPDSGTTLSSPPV
Assay: Inhibition of VEGFR2 by enzymatic assay
Lab note: compare IC50 with 100 nM, writing y if less and n if equal or more.

In: For this compound, is IC50 lower than 100 nM? Cn1cnc(NCc2cccnc2)c1-c1nnc(Nc2ccc(Cl)cc2)o1
Out: n

In: For this compound, is IC50 lower than 100 nM? Cn1cnc(NCc2ccncc2)c1-c1nnc(Nc2ccc(OC(F)(F)F)cc2)o1
Out: y

In: For this compound, is IC50 lower than 100 nM? Cn1cnc(NCc2ccncc2)c1-c1nnc(Nc2ccc(Br)cc2)o1
Out: n

In: For this compound, is IC50 lower than 100 nM? Cn1cnc(NCc2ccncc2)c1-c1nnc(Nc2ccc(Cl)c(Cl)c2)o1
Out: n

In: For this compound, is IC50 lower than 100 nM? Cn1cnc(NCc2ccncc2)c1-c1nnc(Nc2ccc(Oc3ccccc3)cc2)o1
Out: n

====

Target: Vascular endothelial growth factor receptor 2 (Homo sapiens, UniProt P35968)
Assay: Inhibition of VEGFR2 in 293 adenovirus transfected kidney cells by cell-based ELISA assay
Measurement label: pIC50
pIC50 (log units): -log10 of the concentration in mol/L.

| Structure notation | pIC50 |
| --- | --- |
| Cn1cnc(NCc2ccncc2)c1-c1nnc(Nc2ccc(Cl)c(Cl)c2)o1 | 6.59 |
| Cn1cnc(NCc2ccncc2)c1-c1nnc(Nc2ccc(Cl)cc2)o1 | 6.24 |
| Cn1cnc(NCc2ccncc2)c1-c1nnc(Nc2ccc(OC(F)(F)Cl)cc2)o1 | 7.02 |
| Cn1cnc(NCc2ccncc2)c1-c1nnc(Nc2ccc(C(F)(F)F)cc2)o1 | 7.09 |
| Cn1cnc(NCc2ccncc2)c1-c1nnc(Nc2ccc(OC(F)(F)F)cc2)o1 | 7.18 |
| Cn1cnc(NCc2ccncc2)c1-c1nnc(Nc2ccc(Cl)c(C(F)(F)F)c2)o1 | 7.00 |
| Cn1cnc(NCc2ccc(F)c(F)c2)c1-c1nnc(Nc2ccc(Cl)cc2)o1 | 5.25 |
| CC(C)c1ccc(Nc2nnc(-c3c(NCc4ccncc4)ncn3C)o2)cc1 | 5.94 |
| Cn1cnc(NCc2ccncc2)c1-c1nnc(Nc2cccc(OC(F)(F)F)c2)o1 | 6.89 |
| Cc1ccc(Nc2nnc(-c3c(NCc4ccncc4)ncn3C)o2)c(F)c1 | 6.19 |

Just so you know, measured pIC50 for COc1ccc(Nc2nnc(-c3c(NCc4ccncc4)ncn3C)o2)cc1OC came out at 7.03

Just so you know, measured pIC50 for Cn1cnc(NCc2ccncc2)c1-c1nnc(Nc2ccc(C(C)(C)C)cc2)o1 came out at 5.98

Just so you know, measured pIC50 for Cn1cnc(NCc2ccncc2)c1-c1nnc(NCc2ccc3c(c2)OCO3)o1 came out at 6.57

Just so you know, measured pIC50 for COc1cccc(Nc2nnc(-c3c(NCc4ccncc4)ncn3C)o2)c1 came out at 7.19

# credit: ChEMBL document CHEMBL1139649
